B1: SNAP91 (parent)
chain: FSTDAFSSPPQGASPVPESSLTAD

Variants of: B1
assay.method.text: protein stability index of a GFP-peptide fusion (GPS, HEK-293T) (PSI 1-6); higher = more stable;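 note: lentivirally expressed fusions sorted by FACS into six bins by GFP to DsRed ratio, PSI derived from sequencing read proportions per bin multiplied by bin number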
measurement.setup: c terminus: a fixed tail appended
experimental.endpoint: protein stability index
Could you respond with only the numeric value?

entry_sequence="FSTDAFSSPMQGASPVPESSLTAD [P10M]" experimental_endpoint="protein stability index" val=2.29

Read the next record carefully.
Documented protein stability index of FSTDAFSSPPQGASPVMESSLTAD [P17M] : 3.13
